src = patent US8796289B2

Molecular target: GST-tagged-Wee1 kinase (Homo sapiens)
Experiment: Wee1 time-resolved fluorescence equilibrium binding assay (displacement of Oregon Green-labeled ATP-competitive kinase probe)
TEST READOUT: Ki (nM)
I only need the number, in nM, no unit after it.

Field: example entries. Status: answers known.
CN1Cc2cc(Nc3ncc4c(=O)n(-c5c(Cl)cccc5Cl)nc(-c5nccs5)c4n3)ccc2C2(CC2)C1 [Example 320] ... 0.49
CN1CCN(c2ccc(Nc3ncc4c(=O)n(-c5c(Cl)cccc5Cl)nc(-c5ccc(N6CCCC6=O)cc5)c4n3)cc2)CC1 [Example 244] ... 0.5
Cc1nn(-c2c(Cl)cccc2Cl)c(=O)c2cnc(Nc3ccc4c(c3)CN(C(=O)CO)CC43CC3)nc12 [Example 426] ... 0.11
Cc1nn(-c2c(Cl)cccc2Cl)c(=O)c2cnc(Nc3ccc4c(c3)CN(C(N)=O)CC43CC3)nc12 [Example 416] ... 0.19
O=c1c2cnc(Nc3ccc(N4CCNCC4)cc3)nc2c(-c2ccccn2)nn1-c1ccccn1 [Example 285] ... 8.4

query: May I ask what Ki has been recorded for Cc1ccccc1-n1nc(-c2cccs2)c2nc(Nc3ccc4c(c3)CN(C)CC4)ncc2c1=O [Example 164] ?
result: 0.5

query: Any idea what its Ki is? The compound is O=C1CCCN1c1ccc(Nc2ncc3c(=O)n(-c4ccccc4Cl)nc(-c4cccs4)c3n2)cc1 [Example 121]
result: 3

query: # Ki lookup, item C=CCn1nc(-c2cccs2)c2nc(Nc3ccc(N4CCN(C(C)C)CC4)cc3)ncc2c1=O [Example 126]
result: 6

====

Biological target: GST-tagged-Wee1 kinase (Homo sapiens, UniProt P30291)
Sequence (P30291 whole entry): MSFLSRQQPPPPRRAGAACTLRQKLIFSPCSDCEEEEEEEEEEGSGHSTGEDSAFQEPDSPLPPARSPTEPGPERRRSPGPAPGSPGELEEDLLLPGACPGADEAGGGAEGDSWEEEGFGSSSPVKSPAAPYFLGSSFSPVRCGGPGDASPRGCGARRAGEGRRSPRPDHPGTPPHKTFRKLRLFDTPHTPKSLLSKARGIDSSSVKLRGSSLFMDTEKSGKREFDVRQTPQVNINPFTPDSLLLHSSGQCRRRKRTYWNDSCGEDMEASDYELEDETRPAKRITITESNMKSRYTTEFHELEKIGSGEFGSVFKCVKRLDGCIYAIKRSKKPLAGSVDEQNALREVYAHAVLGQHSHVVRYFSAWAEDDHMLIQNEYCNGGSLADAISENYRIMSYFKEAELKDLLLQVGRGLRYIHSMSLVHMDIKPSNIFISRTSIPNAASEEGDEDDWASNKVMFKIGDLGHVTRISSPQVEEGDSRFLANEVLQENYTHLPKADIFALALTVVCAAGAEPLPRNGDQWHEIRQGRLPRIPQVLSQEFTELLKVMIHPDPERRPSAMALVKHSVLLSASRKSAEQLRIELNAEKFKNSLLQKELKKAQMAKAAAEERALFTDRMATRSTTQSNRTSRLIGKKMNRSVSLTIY
Experiment: Wee1 time-resolved fluorescence equilibrium binding assay (displacement of Oregon Green-labeled ATP-competitive kinase probe)
Mark each entry criterion met if its Ki sits below 0.3 nM, and criterion not met for all others.

Record excerpt, results attached:
Cc1nn(-c2c(Cl)cccc2Cl)c(=O)c2cnc(Nc3ccc4c(c3)CNC4)nc12 ... criterion met
Cc1nn(-c2c(Cl)cncc2Cl)c(=O)c2cnc(Nc3ccc4c(c3)CN(C)CC43CC3)nc12 ... criterion met
C=CCn1nc(Cc2ccccc2)c2nc(Nc3ccc(N4CCN(C)CC4)cc3)ncc2c1=O ... criterion not met
CN1CCN(c2ccc(Nc3ncc4c(=O)n(-c5c(Cl)cccc5Cl)nc(-c5ccn(C)n5)c4n3)cc2)CC1 ... criterion met

Now, please, on to the next molecule.
query: For Cc1nn(-c2c(Cl)cccc2Cl)c(=O)c2cnc(Nc3ccc4c(c3)CN(S(C)(=O)=O)CC43CC3)nc12 , is the recorded Ki below the cut-off of 0.3 nM?
result: criterion not met

====

Molecular target: UniProt P30291
Assay: Wee1 time-resolved fluorescence equilibrium binding assay (displacement of Oregon Green-labeled ATP-competitive kinase probe)
TEST READOUT: pKi
Expect pKi as a plain number equal to -log10 of the molar concentration.

Cc1cccc(Cl)c1-n1nc(C)c2nc(Nc3ccc(N4CCN(CCCN(C)C)CC4)cc3)ncc2c1=O ... 9.29

query: Which value of pKi has been reported for Cc1nn(-c2ccccc2Cl)c(=O)c2cnc(Nc3ccc4c(c3)CN(C)CC4(C)C)nc12 in the records?
result: 9.26

query: Entry CC(=O)N1Cc2cc(Nc3ncc4c(=O)n(-c5c(Cl)cccc5Cl)nc(C)c4n3)ccc2C2(CC2)C1 : reported pKi = ?
result: 9.51

query: Given the molecule O=c1c2cnc(Nc3ccc(N4CCNCC4)cc3)nc2c(-c2cncs2)nn1-c1c(Cl)cccc1Cl , what is its reported pKi?
result: 9.41
